Target: CDK8 (CDK8/CycC) (Homo sapiens)
Construct: purchased Invitrogen PV4402
Sequence (P49336 whole entry): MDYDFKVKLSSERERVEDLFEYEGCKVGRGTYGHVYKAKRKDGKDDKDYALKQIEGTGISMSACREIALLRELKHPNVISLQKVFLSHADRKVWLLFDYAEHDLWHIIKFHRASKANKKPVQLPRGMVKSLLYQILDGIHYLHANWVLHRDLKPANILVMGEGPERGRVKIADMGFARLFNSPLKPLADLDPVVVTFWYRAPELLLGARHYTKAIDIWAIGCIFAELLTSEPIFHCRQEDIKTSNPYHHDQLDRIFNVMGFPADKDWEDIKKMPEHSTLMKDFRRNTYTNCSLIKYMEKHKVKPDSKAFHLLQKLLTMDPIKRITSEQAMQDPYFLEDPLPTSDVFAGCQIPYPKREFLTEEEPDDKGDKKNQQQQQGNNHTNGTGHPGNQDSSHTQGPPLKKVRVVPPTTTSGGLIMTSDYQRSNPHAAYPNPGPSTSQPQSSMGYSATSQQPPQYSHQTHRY
Sequence (P24863 whole entry partner): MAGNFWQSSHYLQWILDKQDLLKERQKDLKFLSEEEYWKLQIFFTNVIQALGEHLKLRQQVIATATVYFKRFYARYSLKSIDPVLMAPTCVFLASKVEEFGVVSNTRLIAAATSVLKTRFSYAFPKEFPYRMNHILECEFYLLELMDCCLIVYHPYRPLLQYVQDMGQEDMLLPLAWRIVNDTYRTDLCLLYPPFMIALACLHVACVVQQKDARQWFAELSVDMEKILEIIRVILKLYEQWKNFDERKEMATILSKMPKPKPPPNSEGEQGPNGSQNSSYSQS
Experiment: FRET based Lanthascreen binding competition assay
Details: 5 nM CDK8/CycC, 10 nM Alexa647-Tracer, 1% DMSO, 60 min at RT; read-out: IC50 CDK8 binding
Property: IC50

INSERT INTO measurements (molecular_string, property, experimental_value) VALUES
  ('COC1CN(C(=O)c2ccc3cncc(-c4ccc5c(cnn5CC(C)(C)O)c4)c3n2)C1', 'IC50', '10 to 100 nM'),
  ('Cc1cncc2ccc(C(=O)N[C@H](C)c3ccccc3)nc12', 'IC50', '< 10 nM'),
  ('Cc1cc(-c2cnn(C)c2)ccc1-c1cncc2ccc(C(N)=O)nc12', 'IC50', '< 10 nM'),
  ('COCCn1cc(-c2ccc(-c3cncc4ccc(NS(C)(=O)=O)cc34)cc2)cn1', 'IC50', '< 10 nM'),
  ('Cn1cc(-c2ccc(-c3cncc4ccc(C(=O)N5CCN(C(=O)OC(C)(C)C)CC5)cc34)cc2)cn1', 'IC50', '101 to 500 nM'),
  ('Cn1cc(-c2ccc(-c3cncc4ccc(C(N)=O)cc34)cc2)cn1', 'IC50', '< 10 nM');

Next up:
For the record `Cn1cc(-c2ccc(-c3cncc4ccc(NS(=O)(=O)C5CC5)cc34)cc2)cn1` , what value of IC50 is listed for CDK8 (CDK8/CycC) (Homo sapiens)? < 10 nM
